Listed here: items and their measured kon.
# system_tested: T1, human recombinant soluble CD73 protein (human, UniProt P21589 27-547)
# T1 construct: also called huCD73; rhCD73
# T1 sequence: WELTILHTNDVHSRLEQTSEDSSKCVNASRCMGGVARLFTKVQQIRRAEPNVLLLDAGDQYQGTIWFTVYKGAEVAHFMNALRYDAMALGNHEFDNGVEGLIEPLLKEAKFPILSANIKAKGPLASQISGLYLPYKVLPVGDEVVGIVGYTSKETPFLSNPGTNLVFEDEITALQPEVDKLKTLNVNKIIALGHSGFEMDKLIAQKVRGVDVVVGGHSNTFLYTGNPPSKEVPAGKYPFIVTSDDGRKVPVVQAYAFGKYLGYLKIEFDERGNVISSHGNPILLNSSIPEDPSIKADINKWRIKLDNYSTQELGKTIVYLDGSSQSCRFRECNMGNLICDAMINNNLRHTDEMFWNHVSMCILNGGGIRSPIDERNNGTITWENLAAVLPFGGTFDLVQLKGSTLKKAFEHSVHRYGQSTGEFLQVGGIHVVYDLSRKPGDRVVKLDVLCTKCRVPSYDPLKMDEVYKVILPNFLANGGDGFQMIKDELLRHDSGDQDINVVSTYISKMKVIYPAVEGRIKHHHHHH
# test_protocol: SPR, Ab captured on Protein A, soluble huCD73 as analyte
measured_endpoint: kon (M⁻¹ s⁻¹)

# binder, recorded_measurement
rows = [
    ("H4L3 (antibody, human IgG1, V domains shown) VH: QIQLVQSGAEVKKPGASVKVSCKASGYAFASYNMYWVRQAPGQSLEWIGYIDPYNGGSSYNLTFKGKATLTVDKSASTAYMELSSLRSEDTAVYYCARGYGNYKAWFAYWGQGTLVTVSS VL: DVQMTQSPSSLSASVGDRVTITCKASQSVSNDVAWYQQKPGKAPKLLIYYASTRYTGVPDRFSGSGYGTDFTFTISSLQPEDIATYYCQQDYSSLTFGQGTKLEIK", 110000),
    ("H3L2 (antibody, human IgG1, V domains shown) VH: QIQLVQSGAEVKKPGASVKVSCKASGYAFTSYNMYWVRQAPGQSLEWIGYIDPYNGGSSYNLTFKGKATITVDKSASTAYMELSSLRSEDTAVYYCARGYGNYKAWFAYWGQGTLVTVSS VL: DIQMTQSPSSLSASVGDRVTITCKASQSVSNDVAWYQQKPGKAPKLLIYYASTRYTGVPDRFSGSGYGTDFTFTISSLQPEDIATYYCQQDYSSLTFGQGTKLEIK", 86600),
    ("H2L1 (antibody, human IgG1, V domains shown) VH: QIQLVQSGAEVKKPGASVKVSCKASGYAFTSYNMYWVRQAPGQSLEWMGYIDPYNGGSSYNLTFKGRVTITVDKSASTAYMELSSLRSEDTAVYYCARGYGNYKAWFAYWGQGTLVTVSS VL: DIQMTQSPSSLSASVGDRVTITCKASQSVSNDVAWYQQKPGKAPKLLIYYASTRYTGVPSRFSGSGYGTDFTFTISSLQPEDIATYYCQQDYSSLTFGQGTKLEIK", 83700),
    ("H3L0 (antibody, human IgG1, V domains shown, L0 VL limits counted by alignment with L1) VH: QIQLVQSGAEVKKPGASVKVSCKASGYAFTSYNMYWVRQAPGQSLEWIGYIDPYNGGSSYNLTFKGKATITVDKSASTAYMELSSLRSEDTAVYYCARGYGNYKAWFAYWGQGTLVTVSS VL: DIQMTQSPSSLSASVGDRVTITCKASQSVSNDVAWYQQKPGKAPKLLIYYASTRYTGVPSRFSGSGSGTDFTFTISSLQPEDIATYYCQQDYSSLTFGQGTKLEIK", 271000),
    ("H1L1 (antibody, human IgG1, V domains shown) VH: QIQLVQSGAEVKKPGASVKVSCKASGYTFTSYNMYWVRQAPGQRLEWMGYIDPYNGGSSYNLTFKGRVTITRDKSASTAYMELSSLRSEDTAVYYCARGYGNYKAWFAYWGQGTLVTVSS VL: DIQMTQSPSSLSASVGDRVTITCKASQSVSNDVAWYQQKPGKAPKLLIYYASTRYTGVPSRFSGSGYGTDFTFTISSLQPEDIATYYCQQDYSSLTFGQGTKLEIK", 100000),
]

Recorded values, source patent US20220041744A1.
